Test: Cytotoxicity against african green monkey Vero cells after 72 hrs
Type: cell-based
Conditions: chlorocebus sabaeus

record_smiles | MNTC at 72 h
CO[C@H]1/C=C/O[C@@]2(C)Oc3c(C)c(O)c4c(O)c(c(/C=N/N5CCN(C)CC5)c(O)c4c3C2=O)NC(=O)/C(C)=C\C=C\[C@H](C)[C@H](O)[C@@H](C)[C@@H](O)[C@@H](C)[C@H](OC(C)=O)[C@@H]1C | 64 µg/mL
CN[C@@H]1[C@H](O[C@H]2[C@H](O[C@H]3[C@H](O)[C@@H](O)[C@H](N=C(N)N)[C@@H](O)[C@@H]3N=C(N)N)O[C@@H](C)[C@]2(O)C=O)O[C@@H](CO)[C@H](O)[C@H]1O | 128 µg/mL
